The origin of these recorded values is ChEMBL document CHEMBL3627658.

method: Inhibition of pig heart MDH by Michaelis constant analysis
Set-up: species or system Sus scrofa
metric: Ki (mM)

[[record]]
smiles_record = "NC(=O)c1csc([C@@H]2O[C@H](COC(=O)[C@H]3CCCC[C@@H]3C(=O)OC[C@H]3O[C@@H](n4cnc5c(N)ncnc54)[C@H](O)[C@@H]3O)[C@@H](O)[C@H]2O)n1"
metric = "Ki"
unit_label = "mM"
recorded_measurement = 3.3

[[record]]
smiles_record = "NC(=O)c1csc([C@@H]2O[C@H](COC(=O)CCC(=O)OC[C@H]3O[C@@H](n4cnc5c(N)ncnc54)[C@H](O)[C@@H]3O)[C@@H](O)[C@H]2O)n1"
metric = "Ki"
unit_label = "mM"
recorded_measurement = 1.8

[[record]]
smiles_record = "NC(=O)c1csc([C@@H]2O[C@H](COC(=O)[C@@H]3CCCC[C@H]3C(=O)OC[C@H]3O[C@@H](n4cnc5c(N)ncnc54)[C@H](O)[C@@H]3O)[C@@H](O)[C@H]2O)n1"
metric = "Ki"
unit_label = "mM"
recorded_measurement = 0.7


---

method: Inhibition of pig heart LDH by Michaelis constant analysis
Design: species or system Sus scrofa
metric: Ki (mM)

[[record]]
smiles_record = "NC(=O)c1csc([C@@H]2O[C@H](COC(=O)[C@@H]3CCCC[C@H]3C(=O)OC[C@H]3O[C@@H](n4cnc5c(N)ncnc54)[C@H](O)[C@@H]3O)[C@@H](O)[C@H]2O)n1"
metric = "Ki"
recorded_measurement = 0.8

[[record]]
smiles_record = "NC(=O)c1csc([C@@H]2O[C@H](COC(=O)CCC(=O)OC[C@H]3O[C@@H](n4cnc5c(N)ncnc54)[C@H](O)[C@@H]3O)[C@@H](O)[C@H]2O)n1"
metric = "Ki"
recorded_measurement = 2.7

[[record]]
smiles_record = "NC(=O)c1csc([C@@H]2O[C@H](COC(=O)[C@H]3CCCC[C@@H]3C(=O)OC[C@H]3O[C@@H](n4cnc5c(N)ncnc54)[C@H](O)[C@@H]3O)[C@@H](O)[C@H]2O)n1"
metric = "Ki"
recorded_measurement = 3.9


---

method: Inhibition of yeast ADH by Michaelis constant analysis
Set-up: species or system Saccharomyces cerevisiae
metric: Ki (mM)

[[record]]
smiles_record = "NC(=O)c1csc([C@@H]2O[C@H](COC(=O)[C@H]3CCCC[C@@H]3C(=O)OC[C@H]3O[C@@H](n4cnc5c(N)ncnc54)[C@H](O)[C@@H]3O)[C@@H](O)[C@H]2O)n1"
metric = "Ki"
recorded_measurement = 2.6

[[record]]
smiles_record = "NC(=O)c1csc([C@@H]2O[C@H](COC(=O)CCC(=O)OC[C@H]3O[C@@H](n4cnc5c(N)ncnc54)[C@H](O)[C@@H]3O)[C@@H](O)[C@H]2O)n1"
metric = "Ki"
recorded_measurement = 3.6

[[record]]
smiles_record = "NC(=O)c1csc([C@@H]2O[C@H](COC(=O)[C@@H]3CCCC[C@H]3C(=O)OC[C@H]3O[C@@H](n4cnc5c(N)ncnc54)[C@H](O)[C@@H]3O)[C@@H](O)[C@H]2O)n1"
metric = "Ki"
recorded_measurement = 0.62

